- assay-system: FRMPD2_2, Q68DX3
- Sequence (Q68DX3 944-1038): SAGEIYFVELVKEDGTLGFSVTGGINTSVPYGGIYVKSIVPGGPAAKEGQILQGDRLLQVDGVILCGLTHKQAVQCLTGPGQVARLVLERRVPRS
- measurement-description: holdup assay
- Design: key: below the threshold = too weak to quantify, mostly under pKd 3.1 to 4
- protocol-conditions: plain residues with an end cap or a label only (N-terminal biotin on a linker: ado-ado)
measured-attribute: pKd

Examples with answers:
VKRNSKETVV [MARCHF3, Q86UD3] = 3.81
RFQQRMQTHV [KIRREL1, Q96J84] = below the threshold
MQHQRTHTRV [ZSCAN30, Q86W11] = below the threshold
KRPEMTSSSV [MUC3B, MUC3A, Q02505;Q9H195] = below the threshold

Now turn to the next binder.
Requested read-out: pKd. Entry: NISYRRESAI [KCNJ4, P48050]
below the threshold

These data points were gathered from paper PMC9482650.
